assay: Water solubility was measured; type: ADME
Quantity measured: solubility (µg/mL)
Record the value in µg/mL, omitting the unit from your answer.

Problem: Looking for the measured solubility of `O=C([O-])CCCn1nc(-c2c(-c3ccccc3)nn3ccccc23)ccc1=O.[Na+]` , can you help?
Result: 10000

====

biological target: Adenosine receptor A1 (Rattus norvegicus, UniProt P25099); experiment: Inhibitory activity against Adenosine A1 Receptor using [3H]CHA in rat cortical membranes
Sequence (P25099 whole entry): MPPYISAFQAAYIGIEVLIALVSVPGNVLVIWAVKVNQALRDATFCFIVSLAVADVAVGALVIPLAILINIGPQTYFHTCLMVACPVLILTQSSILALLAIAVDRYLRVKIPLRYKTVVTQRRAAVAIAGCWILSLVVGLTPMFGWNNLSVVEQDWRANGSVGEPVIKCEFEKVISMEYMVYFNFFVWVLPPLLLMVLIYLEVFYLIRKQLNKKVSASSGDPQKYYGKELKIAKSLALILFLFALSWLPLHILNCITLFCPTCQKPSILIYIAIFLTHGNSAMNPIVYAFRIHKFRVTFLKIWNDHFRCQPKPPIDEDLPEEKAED
pIC50: −log10 of the molar value.
Quantity measured: pIC50

[
  {
    "Smiles notation": "O=C(O)CC1=C(n2nc(-c3c(-c4ccccc4)nn4ccccc34)ccc2=O)CCC1",
    "Quantity measured": "pIC50",
    "Endpoint value": 7.96
  },
  {
    "Smiles notation": "O=C(/C=C/c1c(-c2ccccc2)nn2ccccc12)N1CCCC[C@@H]1CCO",
    "Quantity measured": "pIC50",
    "Endpoint value": 7.77
  },
  {
    "Smiles notation": "O=C(O)CC1=C(n2nc(-c3c(-c4ccccc4)nn4ccccc34)ccc2=O)CCCC1",
    "Quantity measured": "pIC50",
    "Endpoint value": 7.82
  },
  {
    "Smiles notation": "O=C(O)CC1=C(n2nc(-c3c(-c4ccccc4)nn4ccccc34)ccc2=O)CCCCC1",
    "Quantity measured": "pIC50",
    "Endpoint value": 7.80
  }
]
